# system: human TLR4 (Homo sapiens, UniProt O00206+Q9Y6Y9)
# Sequence (O00206 24-839): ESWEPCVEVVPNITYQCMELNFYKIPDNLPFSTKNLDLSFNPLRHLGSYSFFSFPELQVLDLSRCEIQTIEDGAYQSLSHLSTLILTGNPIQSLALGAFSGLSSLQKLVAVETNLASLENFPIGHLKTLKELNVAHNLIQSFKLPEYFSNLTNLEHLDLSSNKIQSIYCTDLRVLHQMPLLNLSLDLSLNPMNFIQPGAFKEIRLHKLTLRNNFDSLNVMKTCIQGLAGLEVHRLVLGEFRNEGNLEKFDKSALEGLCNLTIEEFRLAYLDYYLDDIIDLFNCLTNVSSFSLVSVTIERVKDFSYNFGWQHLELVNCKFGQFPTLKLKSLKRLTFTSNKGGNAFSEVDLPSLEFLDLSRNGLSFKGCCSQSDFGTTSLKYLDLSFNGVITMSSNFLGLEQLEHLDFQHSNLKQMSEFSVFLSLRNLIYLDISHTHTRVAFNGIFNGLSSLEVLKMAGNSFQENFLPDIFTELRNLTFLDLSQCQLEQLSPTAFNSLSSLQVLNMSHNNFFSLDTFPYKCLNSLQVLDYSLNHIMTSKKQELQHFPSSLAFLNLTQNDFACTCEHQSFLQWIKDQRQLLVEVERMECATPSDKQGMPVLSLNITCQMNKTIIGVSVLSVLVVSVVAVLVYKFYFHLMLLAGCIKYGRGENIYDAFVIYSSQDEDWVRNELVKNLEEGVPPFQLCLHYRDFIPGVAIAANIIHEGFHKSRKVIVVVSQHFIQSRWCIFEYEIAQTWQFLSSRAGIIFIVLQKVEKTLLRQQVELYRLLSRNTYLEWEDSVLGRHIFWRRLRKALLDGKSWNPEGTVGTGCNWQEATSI
# Sequence (Q9Y6Y9 17-160 limits assumed): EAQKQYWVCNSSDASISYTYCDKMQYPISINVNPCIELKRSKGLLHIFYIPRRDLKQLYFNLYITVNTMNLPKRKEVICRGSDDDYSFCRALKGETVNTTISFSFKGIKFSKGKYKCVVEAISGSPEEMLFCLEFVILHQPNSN
# protocol: TLR4/NF-κB reporter cell assay (SEAP), HEK-Blue hTLR4
# stated_conditions: 20 h, 2-fold serial dilutions from 10 μM, NF-κB SEAP; read-out: EC50 on hTLR4 reporter cells
measurement_type: EC50 (µM)
Hi! Could you send only the number? It should be in µM, unit omitted.

Lookup: Report EC50 under test system human TLR4 (Homo sapiens, UniProt O00206+Q9Y6Y9) for Cn1c2ccc(-c3ccco3)cc2c2nc(SCC(=O)NC3CCCCC3)n(-c3ccccc3)c(=O)c21 [2B182C] .
Found: 1.66

====

# system: human TLR4 (Homo sapiens, UniProt O00206+Q9Y6Y9)
# Construct: host or cells: HEK-Blue hTLR4 (HEK293-derived NF-κB/SEAP reporter cells)
# protocol: TLR4/NF-κB reporter cell assay (SEAP), HEK-Blue hTLR4
# Assay type: cell-based
# stated_conditions: AUC normalized to 2B110 as 100%, Figure 1C
# Protocol: Figure 1 Structure-activity relationship studies in TLR4 agonistic pyrimidoindoles. (A) Syntheses of C8-alkynyl and C8-alkyl analogs. (B) Syntheses of C8-aryl analogs. […] NF-κB inducible NF-κB SEAP levels in culture supernatants were measured according to manufacturer's protocol. […] The color of each point is based on cell viability in TLR4-NF-κB reporter cells for compounds evaluated at 5 μM concentration. […] TLR4/NF-κB activation was assessed using HEK-Blue™ hTLR4 and HEK-Blue™ mTLR4 (InvivoGen). […]
measurement_type: human TLR4 agonistic activity (in words)

// solved cases for human TLR4 agonistic activity (in words) follow
Lookup: Fill in human TLR4 agonistic activity (in words) for record Cn1c2ccc(-c3cccc(O)c3)cc2c2nc(SCC(=O)NC3CCCCC3)n(-c3ccccc3)c(=O)c21 [8m]
Found: significant loss

Lookup: Fill in human TLR4 agonistic activity (in words) for record Cn1c2ccc(-c3cccc([N+](=O)[O-])c3)cc2c2nc(SCC(=O)NC3CCCCC3)n(-c3ccccc3)c(=O)c21 [8o]
Found: less potent than 2B110

Lookup: Fill in human TLR4 agonistic activity (in words) for record Cn1c2ccc(-c3cccc(C(=O)O)c3)cc2c2nc(SCC(=O)NC3CCCCC3)n(-c3ccccc3)c(=O)c21 [8l]
Found: significant loss

Lookup: Fill in human TLR4 agonistic activity (in words) for record Cn1c2ccc(-c3cccc(N)c3)cc2c2nc(SCC(=O)NC3CCCCC3)n(-c3ccccc3)c(=O)c21 [8k]
Found: significant loss

The record that follows has no human TLR4 agonistic activity (in words) shown yet.
Lookup: Fill in human TLR4 agonistic activity (in words) for record Cn1c2ccc(-c3cccc(C#N)c3)cc2c2nc(SCC(=O)NC3CCCCC3)n(-c3ccccc3)c(=O)c21 [8n]
Found: less potent than 2B110

====

# system: mouse TLR4 (Mus musculus, UniProt Q9JHF9+Q9QUK6)
# Construct: host or cells: HEK-Blue mTLR4 (HEK293-derived NF-κB/SEAP reporter cells)
# Sequence (Q9QUK6 26-835): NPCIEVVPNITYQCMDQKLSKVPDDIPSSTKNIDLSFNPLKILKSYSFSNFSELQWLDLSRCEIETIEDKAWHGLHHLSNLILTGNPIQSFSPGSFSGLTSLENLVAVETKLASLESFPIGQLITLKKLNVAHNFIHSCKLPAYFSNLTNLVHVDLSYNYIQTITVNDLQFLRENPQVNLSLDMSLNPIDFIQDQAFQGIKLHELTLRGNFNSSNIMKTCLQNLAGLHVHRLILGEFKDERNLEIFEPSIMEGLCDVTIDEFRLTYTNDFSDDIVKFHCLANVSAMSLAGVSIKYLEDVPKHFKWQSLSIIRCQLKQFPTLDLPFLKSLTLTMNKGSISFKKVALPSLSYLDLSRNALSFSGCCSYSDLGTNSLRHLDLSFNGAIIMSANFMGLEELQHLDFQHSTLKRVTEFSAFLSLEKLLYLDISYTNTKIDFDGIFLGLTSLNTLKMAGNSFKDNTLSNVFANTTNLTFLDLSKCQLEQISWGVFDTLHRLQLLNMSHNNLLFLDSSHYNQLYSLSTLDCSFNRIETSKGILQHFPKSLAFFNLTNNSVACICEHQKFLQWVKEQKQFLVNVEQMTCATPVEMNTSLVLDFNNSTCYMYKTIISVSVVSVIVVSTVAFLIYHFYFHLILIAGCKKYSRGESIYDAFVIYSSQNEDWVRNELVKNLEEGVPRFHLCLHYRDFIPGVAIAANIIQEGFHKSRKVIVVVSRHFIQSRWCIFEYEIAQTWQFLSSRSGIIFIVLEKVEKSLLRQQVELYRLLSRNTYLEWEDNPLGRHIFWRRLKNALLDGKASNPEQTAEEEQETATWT
# Sequence (Q9JHF9 19-160): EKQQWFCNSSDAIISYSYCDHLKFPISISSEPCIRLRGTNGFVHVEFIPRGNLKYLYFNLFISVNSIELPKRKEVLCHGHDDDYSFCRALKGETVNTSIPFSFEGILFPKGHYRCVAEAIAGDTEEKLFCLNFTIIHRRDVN
# protocol: TLR4/NF-κB reporter cell assay (SEAP), HEK-Blue mTLR4
# Assay type: cell-based
# stated_conditions: AUC normalized to 2B110 as 100%, Figure 1C
measurement_type: murine TLR4 agonistic activity (in words)

Lookup: Report murine TLR4 agonistic activity (in words) under test system mouse TLR4 (Mus musculus, UniProt Q9JHF9+Q9QUK6) for Cn1c2ccc(-c3cccc(O)c3)cc2c2nc(SCC(=O)NC3CCCCC3)n(-c3ccccc3)c(=O)c21 .
Found: significant loss

Lookup: Report murine TLR4 agonistic activity (in words) under test system mouse TLR4 (Mus musculus, UniProt Q9JHF9+Q9QUK6) for Cn1c2ccc(-c3cccc(N)c3)cc2c2nc(SCC(=O)NC3CCCCC3)n(-c3ccccc3)c(=O)c21 .
Found: significant loss

Lookup: Report murine TLR4 agonistic activity (in words) under test system mouse TLR4 (Mus musculus, UniProt Q9JHF9+Q9QUK6) for Cn1c2ccc(-c3cccc(C(=O)O)c3)cc2c2nc(SCC(=O)NC3CCCCC3)n(-c3ccccc3)c(=O)c21 .
Found: significant loss
